experiment: Hematology assays in cynomolgus monkeys (Example 45); assay type: in vivo; conditions: day 85
Value Type: basophils (%)
Numbers only, in %.

Examples with their reported basophils follow.
[[record]]
substance = "ISIS 417002: MOE gapmer, nucleobases 1275 to 1318 of SEQ ID NO: 1 (Table 8) (antisense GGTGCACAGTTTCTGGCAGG; MOE gapmer, wing and gap sizes not given here)"
value_type = "basophils"
measured_result = 0.3

[[record]]
substance = "ISIS 416838: MOE gapmer, nucleobases 1018 to 1042 of SEQ ID NO: 1 (Table 6) (antisense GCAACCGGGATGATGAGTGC; MOE gapmer, wing and gap sizes not given here)"
value_type = "basophils"
measured_result = 0.3

[[record]]
substance = "ISIS 416864: MOE gapmer, nucleobases 1275 to 1318 of SEQ ID NO: 1 (Table 8) (antisense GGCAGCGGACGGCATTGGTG; MOE gapmer, wing and gap sizes not given here)"
value_type = "basophils"
measured_result = 0.4

[[record]]
substance = "ISIS 416850: MOE gapmer, nucleobases 1275 to 1318 of SEQ ID NO: 1 (Table 8) (antisense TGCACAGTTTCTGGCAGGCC; MOE gapmer, wing and gap sizes not given here)"
value_type = "basophils"
measured_result = 0.3


In the following, a different substance is considered.
Request: Entry ISIS 416858: MOE gapmer, nucleobases 1275 to 1318 of SEQ ID NO: 1 (Table 8) (antisense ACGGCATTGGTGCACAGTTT; MOE gapmer, wing and gap sizes not given here) has what basophils?
Result: 0.3

---

assay: Hematology assays in cynomolgus monkeys (Example 46); type: in vivo; settings: Day 17
Strand notation (5' to 3'): a small letter for the sugar, then the base; units joined by * are phosphorothioate-linked, units joined directly phosphodiester-linked; [ ] holds rarer units or linkages, { } end groups; capitals alone tell only the bases. e = 2'-O-(2-methoxyethyl) (MOE); [5mC] = 5-methylcytosine; d = 2'-deoxy (DNA)
Kindly state RBC count for each of the entries shown.
Give bare numbers, in µL⁻¹.

Solved entries:
[[record]]
substance = "ISIS 449710: 3-8-3, 4-8-4, 2-10-2, 3-10-3 or 4-10-4 MOE microwalk gapmer (Table 46) (antisense e[5mC]*eA*e[5mC]*dA*dG*dT*dT*dT*d[5mC]*dT*dG*dG*d[5mC]*eA*eG*eG)"
units_label = "µL⁻¹"
measured_result = "5.8e+06"

[[record]]
substance = "ISIS 445531: 5-8-5 or 6-8-6 MOE microwalk gapmer (Table 44) (antisense eG*eG*e[5mC]*eA*eT*dT*dG*dG*dT*dG*d[5mC]*dA*d[5mC]*eA*eG*eT*eT*eT)"
units_label = "µL⁻¹"
measured_result = "5.8e+06"


Request: Which value of RBC count has been reported for ISIS 416858: MOE gapmer, nucleobases 1275 to 1318 of SEQ ID NO: 1 (Table 8) (antisense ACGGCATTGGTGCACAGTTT; MOE gapmer, wing and gap sizes not given here) in the records?
Result: 5.6e+06

---

tested on: blood coagulation; assay: PT and aPTT assay in cynomolgus monkeys (Example 45); assay type: in vivo; conditions: day −14; escalating dose regimen; platelet poor plasma
Exercise: state measured PT ratio (INR) for each of the substances provided.
Answers are plain numbers.

[[record]]
substance = "ISIS 416850: MOE gapmer, nucleobases 1275 to 1318 of SEQ ID NO: 1 (Table 8) (antisense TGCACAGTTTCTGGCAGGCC; MOE gapmer, wing and gap sizes not given here)"
study_target = "blood coagulation"
measured_result = 1.00


Request: # get_value(readout= PT ratio (INR), system= blood coagulation) for ISIS 416838: MOE gapmer, nucleobases 1018 to 1042 of SEQ ID NO: 1 (Table 6) (antisense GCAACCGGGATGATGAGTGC; MOE gapmer, wing and gap sizes not given here)
Result: 1.00

---

tested on: IL-1β, IL-6, IFN-γ, TNF-α, IL-8, MIP-1α, MCP-1, MIP-1β, RANTES; test: Cytokine and chemokine assays in cynomolgus monkeys (Example 46); format: in vivo; details: day 55
Strand notation (5' to 3'): a small letter for the sugar, then the base; units joined by * are phosphorothioate-linked, units joined directly phosphodiester-linked; [ ] holds rarer units or linkages, { } end groups; capitals alone tell only the bases. e = 2'-O-(2-methoxyethyl) (MOE); [5mC] = 5-methylcytosine; d = 2'-deoxy (DNA)
Value Type: TNF-α level (pg/mL)
Answers are plain numbers, in pg/mL.

// solved cases for TNF-α level follow
[[record]]
substance = "ISIS 449708: 3-8-3, 4-8-4, 2-10-2, 3-10-3 or 4-10-4 MOE microwalk gapmer (Table 46) (antisense eA*e[5mC]*eA*dG*dT*dT*dT*d[5mC]*dT*dG*dG*e[5mC]*eA*eG)"
units_label = "pg/mL"
measured_result = 17

[[record]]
substance = "ISIS 449707: 3-8-3, 4-8-4, 2-10-2, 3-10-3 or 4-10-4 MOE microwalk gapmer (Table 46) (antisense e[5mC]*eA*e[5mC]*eA*dG*dT*dT*dT*d[5mC]*dT*dG*dG*e[5mC]*eA*eG*eG)"
units_label = "pg/mL"
measured_result = 16

[[record]]
substance = "ISIS 416858: MOE gapmer, nucleobases 1275 to 1318 of SEQ ID NO: 1 (Table 8) (antisense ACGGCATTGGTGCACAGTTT; MOE gapmer, wing and gap sizes not given here)"
units_label = "pg/mL"
measured_result = 15


# context switch: different substance, same TNF-α level
Request: Data request, read-out TNF-α level, for ISIS 449709: 3-8-3, 4-8-4, 2-10-2, 3-10-3 or 4-10-4 MOE microwalk gapmer (Table 46) (antisense eG*e[5mC]*eA*e[5mC]*dA*dG*dT*dT*dT*d[5mC]*dT*dG*dG*d[5mC]*eA*eG*eG*e[5mC])
Result: 8

---

settings: mouse, in vivo, sc, 50 mg/kg
e = 2'-O-(2-methoxyethyl) (MOE); d = 2'-deoxy (DNA)
Value Type: Cholesterol (mg/dL)
One number for each entry, in mg/dL.

Previously resolved entries follow.
[[record]]
substance = "ISIS 413481: 5-10-5 MOE gapmer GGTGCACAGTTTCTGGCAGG (sugars from the 5' end e5 d10 e5, backbone and methylation of C not given here)"
measured_result = 153

[[record]]
substance = "ISIS 416863: MOE gapmer, nucleobases 1275 to 1318 of SEQ ID NO: 1 (Table 8) (antisense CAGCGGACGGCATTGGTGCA; MOE gapmer, wing and gap sizes not given here)"
measured_result = 118

[[record]]
substance = "ISIS 416862: MOE gapmer, nucleobases 1275 to 1318 of SEQ ID NO: 1 (Table 8) (antisense AGCGGACGGCATTGGTGCAC; MOE gapmer, wing and gap sizes not given here)"
measured_result = 103

[[record]]
substance = "ISIS 416854: MOE gapmer, nucleobases 1275 to 1318 of SEQ ID NO: 1 (Table 8) (antisense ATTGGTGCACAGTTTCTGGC; MOE gapmer, wing and gap sizes not given here)"
measured_result = 199


Please find the next substance below.
Request: Would you mind telling me what Cholesterol value was observed for ISIS 416861: MOE gapmer, nucleobases 1275 to 1318 of SEQ ID NO: 1 (Table 8) (antisense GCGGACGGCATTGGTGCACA; MOE gapmer, wing and gap sizes not given here) ?
Result: 133

---

conditions: rat, in vivo, sc, 50 mg/kg
e = 2'-O-(2-methoxyethyl) (MOE); d = 2'-deoxy (DNA)
Value Type: hemoglobin (g/dL)
One number for each entry, in g/dL.

[[record]]
substance = "ISIS 416866: MOE gapmer, nucleobases 1275 to 1318 of SEQ ID NO: 1 (Table 8) (antisense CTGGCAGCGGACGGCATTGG; MOE gapmer, wing and gap sizes not given here)"
measured_result = 14.0

[[record]]
substance = "ISIS 416867: MOE gapmer, nucleobases 1275 to 1318 of SEQ ID NO: 1 (Table 8) (antisense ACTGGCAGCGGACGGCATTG; MOE gapmer, wing and gap sizes not given here)"
measured_result = 14.0

[[record]]
substance = "ISIS 413482: 5-10-5 MOE gapmer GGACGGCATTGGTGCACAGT (sugars from the 5' end e5 d10 e5, backbone and methylation of C not given here)"
measured_result = 13.2

[[record]]
substance = "ISIS 412223: 5-10-5 MOE gapmer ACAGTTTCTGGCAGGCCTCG (sugars from the 5' end e5 d10 e5, backbone and methylation of C not given here)"
measured_result = 13.1


Request: Given ISIS 416851: MOE gapmer, nucleobases 1275 to 1318 of SEQ ID NO: 1 (Table 8) (antisense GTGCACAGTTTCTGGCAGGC; MOE gapmer, wing and gap sizes not given here) , state its recorded hemoglobin.
Result: 13.7

---

assay: Kidney function, BUN, urine protein to creatinine ratio in cynomolgus monkeys (Example 46); format: in vivo; details: urine, day 49
Strand notation (5' to 3'): a small letter for the sugar, then the base; units joined by * are phosphorothioate-linked, units joined directly phosphodiester-linked; [ ] holds rarer units or linkages, { } end groups; capitals alone tell only the bases. e = 2'-O-(2-methoxyethyl) (MOE); [5mC] = 5-methylcytosine; d = 2'-deoxy (DNA)
Give measured Urine protein/creatinine ratio for each item. Keep answers brief.
Give bare numbers.

[[record]]
substance = "ISIS 449708: 3-8-3, 4-8-4, 2-10-2, 3-10-3 or 4-10-4 MOE microwalk gapmer (Table 46) (antisense eA*e[5mC]*eA*dG*dT*dT*dT*d[5mC]*dT*dG*dG*e[5mC]*eA*eG)"
measured_result = 0.00

[[record]]
substance = "ISIS 449711: 3-8-3, 4-8-4, 2-10-2, 3-10-3 or 4-10-4 MOE microwalk gapmer (Table 46) (antisense eA*e[5mC]*dA*dG*dT*dT*dT*d[5mC]*dT*dG*dG*d[5mC]*eA*eG)"
measured_result = 0.01

[[record]]
substance = "ISIS 449707: 3-8-3, 4-8-4, 2-10-2, 3-10-3 or 4-10-4 MOE microwalk gapmer (Table 46) (antisense e[5mC]*eA*e[5mC]*eA*dG*dT*dT*dT*d[5mC]*dT*dG*dG*e[5mC]*eA*eG*eG)"
measured_result = 0.03

[[record]]
substance = "ISIS 449710: 3-8-3, 4-8-4, 2-10-2, 3-10-3 or 4-10-4 MOE microwalk gapmer (Table 46) (antisense e[5mC]*eA*e[5mC]*dA*dG*dT*dT*dT*d[5mC]*dT*dG*dG*d[5mC]*eA*eG*eG)"
measured_result = 0.00


Now, please, on to the next substance.
Request: Fill in: Urine protein/creatinine ratio of ISIS 445531: 5-8-5 or 6-8-6 MOE microwalk gapmer (Table 44) (antisense eG*eG*e[5mC]*eA*eT*dT*dG*dG*dT*dG*d[5mC]*dA*d[5mC]*eA*eG*eT*eT*eT) is ___
Result: 0.08
